Molecular target: Sphingosine kinase 1/2 (Rattus norvegicus, UniProt Q91V26+A6JB73)
Experiment: Prodrug conversion in rat blood assessed as SPHK1/SPHK2-mediated compound phosphorylation by measuring intrinsic clearance by LC-MS/MS analysis
Assay type: ADME, tissue-based
MEASURE: CL
Your answer should be a number followed by the unit of measure.

CCCc1nc(-c2ccc(-c3ccc(CC[C@@H](N)CO)cc3)cc2)co1.Cl: 0.334 µL/min
CCCCCCCCc1ccc(CCC(N)(CO)CO)cc1.Cl [FINGOLIMOD HYDROCHLORIDE]: 0.95 µL/min
CCCc1nc(-c2ccc(-c3ccc(CCC(N)(CO)CO)cc3)cc2)co1.Cl: 0.437 µL/min

Query: Missing value: CL, Sphingosine kinase 1/2 (Rattus norvegicus, UniProt Q91V26+A6JB73), entry CCCc1nc(-c2ccc(-c3ccc(CC[C@@](C)(N)CO)cc3)cc2)co1.Cl . Fill in?
Response: 0.175 µL/min
